Each recorded value in this set is attributed to PubChem BioAssay (Tox21).

assay: Caspase-3/7 induction in CHO-K1 cells by small molecules, qHTS cell viability counter screen (AID 1346979); settings: CellTiter-Fluor fluorescence, 17 h; series mostly up to 92.4 µM; also: nearly all actives have a fitted effect of over 35% in size
Inconclusive results are not listed. Calls of active or inactive are those of the source. Calls follow the shape of the dose curve; as a rule, active = well fitted cell-killing curve with a large enough effect in the repeat runs; inconclusive = weak or mixed curves, or effect the other way; inactive = no such curve, though single readings can be large or run the other way.
Outcome codes: True = active, False = inactive

compound=CN(C)CCN1CCOCC1 class_assignment=False
compound=O=Nc1ccc(NO)cc1 class_assignment=True
compound=CC1(C)C(=O)N(Br)C(=O)N1Br class_assignment=False
compound=NC(=O)c1nc(-c2cccc(-c3cc(F)ccc3OCC(F)(F)C(F)(F)F)c2)n[nH]1 class_assignment=True
compound="CN1[C@@H]2CC[C@H]1CC(OC(=O)C(CO)c1ccccc1)C2 (some centres undefined)" class_assignment=False
compound=OCCN1CN(CCO)CN(CCO)C1 class_assignment=False
compound=CCOC(=O)CN class_assignment=False
compound=NC(=O)c1ccccc1N class_assignment=False
compound=CS(C)(=O)=O class_assignment=False
compound=C/C=C/C=N/NC(=O)c1ccncc1 class_assignment=False
compound=Cc1ccc2ccc3cccc4ccc1c2c34 class_assignment=False
compound=O=C(c1ccccc1)c1cc(Cl)ccc1O class_assignment=False
compound=C=CCCCCCCC=C class_assignment=False
compound=Cc1c(-c2ccc(O)cc2)n(Cc2ccc(OCCN3CCCCCC3)cc2)c2ccc(O)cc12 class_assignment=True
compound=S=C(SSSSSSC(=S)N1CCCCC1)N1CCCCC1 class_assignment=True
compound=CCOCN(C(=O)CS(=O)(=O)O)c1c(C)cccc1CC class_assignment=False
compound="O=C1NC2CCCCN2C12CCN(CCCN1c3ccccc3CCc3ccc(Cl)cc31)CC2 (centres undefined)" class_assignment=True
compound=CC(C)(C)CC(C)(C)c1ccccc1O class_assignment=True
compound=c1ccc(Nc2cccc3ccccc23)cc1 class_assignment=True
compound=Oc1c(Br)cc(Br)c2cccnc12 class_assignment=True
compound=O=C1NCN(c2ccccc2)C12CCN(CCCC(c1ccc(F)cc1)c1ccc(F)cc1)CC2 class_assignment=True
compound=c1cc[nH]c1 class_assignment=False
compound=C=C[C@](C)(O)CC[C@@H]1[C@@]2(C)CCCC(C)(C)[C@@H]2CC[C@@]1(C)O class_assignment=True
compound=CCN(CC)c1cccc(C)c1 class_assignment=False
compound=CCCCCCCCCCCCCCCC class_assignment=False
compound=Cc1cc(C)c(C=O)c(C)c1 class_assignment=False
compound=NC(=O)C(=O)N/N=C/c1ccc([N+](=O)[O-])o1 class_assignment=True
compound=OCCCc1cccnc1 class_assignment=False
compound=C[C@@]12C(=O)OC(=O)[C@]1(C)C1CCC2O1 class_assignment=True

----------
Assay: qHTS assay to identify small molecule antagonists of the progesterone receptor (PR) signaling pathway - cell viability counter screen (AID 1346798);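 also: HEK293T PR-UAS-bla cells stimulated with the agonist R5020; % is scaled to controls: 0 for no effect and ±100 for the full control effect; nearly all actives have a fitted effect of over 50% in size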
Details: PR-UAS-bla HEK293T viability, CellTiter-Glo luminescence, 16 h; series mostly up to 92.4 µM
From the text: National Center for Advancing Translational Sciences [NCATS] NIH Chemical Genomics Center [NCGC] U.S. Environmental Protection Agency [EPA] National Institutes of Environmental Health Sciences [NIEHS] National Toxicology Program [NTP] U.S. Food and Drug Administration [FDA] Progesterone receptor (PR), a nuclear hormone receptor, plays an important role in development, metabolic homeostasis and reproduction. It is activated by the steroid hormone progesterone. […]
Inconclusive results are not listed. Activity calls are given as the source filed them. The call rests on the fitted dose curve; in most records, active means well fitted cell-killing curve with a large enough effect in the repeat runs; inconclusive means weak or mixed curves, or effect the other way; inactive means no such curve, though single readings can be large or run the other way.
ASSAY_METRIC: activity change, negative = cytotoxicity

given_smiles=O=C=NCc1cccc(CN=C=O)c1 assay_metric="activity change, negative = cytotoxicity" value_measured="-11.8% [at 18.9 µM] (inactive)"
given_smiles=CCN1CCN(c2cc(-c3ccc(F)cc3)c3c(n2)CCCCCC3)CC1 assay_metric="activity change, negative = cytotoxicity" value_measured="1.1% [at 18.9 µM] (inactive)"
given_smiles=O=S(=O)(O)c1cc(S(=O)(=O)O)c2ccc3c(S(=O)(=O)O)cc(S(=O)(=O)O)c4ccc1c2c43 assay_metric="activity change, negative = cytotoxicity" value_measured="-15.6% [at 18.9 µM] (inactive)"
given_smiles=O=S(O)O assay_metric="activity change, negative = cytotoxicity" value_measured="-0.356% [at 18.9 µM] (inactive)"
